The reported numbers originate from patent US11566007B2.

test system: NCI-H358 (K-Ras G12C); experiment: CellTiter-Glo cell viability assay, NCI-H358; assay type: cell-based, human; settings: Homo sapiens, NCI-H358, 120 h, NCI-H358, 5-day treatment; class symbols; read-out: Additional H358 Cell Viability assay data (K-Ras G12C, IC50)
pIC50: −log10 of the molar value.
assay-readout: pIC50

Below: 5 compounds and their reported pIC50.
compound	target-entity	assay-readout	reported-value
CCn1c(-c2cccnc2[C@H](C)OC)c2c3cc(ccc31)-c1cccc(c1)C[C@H](NC(=O)[C@@H](COC1CN(C(=O)C#C[C@H]3COCCN3C)C1)C(C)C)C(=O)N1CCC[C@H](N1)C(=O)OCC(C)(C)C2 (atropisomer, axis not shown)	NCI-H358 (K-Ras G12C)	pIC50	> 8.00
C=CC(=O)N1CCC(C(=O)N(C)[C@H](C(=O)N[C@H]2Cc3cc(O)cc(c3)-c3ccc4c(c3)c(c(-c3cccnc3[C@H](C)OC)n4CC)CC(C)(C)COC(=O)[C@@H]3CCCN(N3)C2=O)C(C)C)CC1 (atropisomer, axis not shown)	NCI-H358 (K-Ras G12C)	pIC50	> 8.00
CC#CC(=O)N1C[C@H](C)[C@H](C(=O)N(C)[C@H](C(=O)N[C@H]2Cc3cccc(c3)-c3ccc4c(c3)c(c(-c3cccnc3[C@H](C)OC)n4CC)CC(C)(C)COC(=O)[C@@H]3CCCN(N3)C2=O)C(C)C)C1 (atropisomer, axis not shown)	NCI-H358 (K-Ras G12C)	pIC50	7.00 to 8.00
CC#CC(=O)N1CC[C@H](C(=O)N(C)[C@H](C(=O)N[C@H]2Cc3cccc(c3)-c3ccc4c(c3)c(c(-c3cccnc3[C@H](C)OC)n4CC)CC(C)(C)COC(=O)[C@@H]3CCCN(N3)C2=O)C(C)C)C1 (atropisomer, axis not shown)	NCI-H358 (K-Ras G12C)	pIC50	7.00 to 8.00
C=CC(=O)N1C[C@H]2CN(C(=O)N(C)[C@H](C(=O)N[C@H]3Cc4nc(cs4)-c4ccc5c(c4)c(c(-c4cccnc4[C@H](C)OC)n5CC)CC(C)(C)COC(=O)[C@@H]4CCCN(N4)C3=O)C(C)C)[C@H]2C1 (atropisomer, axis not shown)	NCI-H358 (K-Ras G12C)	pIC50	> 8.00

Please give pIC50 for each item listed below.
1. CCn1c(-c2cccnc2[C@H](C)OC)c2c3cc(ccc31)-c1cccc(c1)C[C@H](NC(=O)[C@H](C(C)C)N(C)C(=O)[C@H]1CCN(C(=O)C#CC(C)(C)N(C)C)C1)C(=O)N1CCC[C@H](N1)C(=O)OCC(C)(C)C2 (atropisomer, axis not shown)
2. C=CC(=O)N1CCCN(C(=O)N(C)[C@H](C(=O)N[C@H]2Cc3cc(O)cc(c3)-c3ccc4c(c3)c(c(-c3cccnc3[C@H](C)OC)n4CC)CC(C)(C)COC(=O)[C@@H]3CCCN(N3)C2=O)C(C)C)CC1 (atropisomer, axis not shown)

1: > 8.00; 2: 7.00 to 8.00
